All figures here come from the Immune Epitope Database (IEDB).

test-target: HLA-A*02:01
procedure-details: IEDB peptide-MHC binding, cellular MHC/competitive/fluorescence; bounds were set here for any values at or beyond the usual limits of such assays
run-conditions: source organism: Vaccinia virus WR
Collected pIC50 values appear next to each entry.
// scale note: pIC50 = -log10(conc_M); give the bare number

LTPFEKEFT :: 4.35
AAAKTPVIVV :: 4.35
ILKPRIDKTM :: 4.31

Query block: // query pIC50 value for entry LVNLIQAKT
Result block: 4.35

Query block: Return reported pIC50; argument: SILRSIEGEL
Result block: 5.23

====

test-target: HLA-A*02:01
procedure-details: IEDB peptide-MHC binding, purified MHC/competitive/radioactivity; bounds were set here for any values at or beyond the usual limits of such assays
run-conditions: source organism: Mammarenavirus whitewaterense
One threshold, 100 nM, splits the recorded IC50 values: lower ones are yes (1), equal or higher ones are no (0).

# example entries with known answers
LNASYITPYV :: yes (1)
NASYITPYV :: no (0)
QLDMIITAV :: yes (1)
ALIAVSIISI :: no (0)

Query block: Hi there! Is IC50 for ALNIALIAV below 100 nM, do you know?
Result block: yes (1)

Query block: Quick check: IC50 of GLLQFIVFLL under 100 nM?
Result block: no (0)

Query block: Input GLVDVCFWS ; condition: IC50 strictly below 100 nM. Does it hold?
Result block: no (0)

Query block: IC50 under 100 nM? Item: FSAVISGSV
Result block: yes (1)

Query block: is_below(IC50, 100 nM) for MINDTHFLL ?
Result block: no (0)

Query block: Please let me know if TLKSFFAWSL shows IC50 below 100 nM.
Result block: no (0)

Query block: IC50 under 100 nM? Item: YVNHTGFNV
Result block: no (0)

Query block: Determine if FLLRGPFEAS shows IC50 strictly lower than 100 nM.
Result block: no (0)

Query block: Regarding CNYTKFWYV , kindly confirm whether its IC50 is beneath 100 nM.
Result block: no (0)

Query block: Criterion: IC50 strictly below 100 nM. Is it met by YCNYTKFWYV ?
Result block: yes (1)
